- Tested on: Plasmodium falciparum
- Run description: Displacement of [3H]farnesylpyrophosphate from Plasmodium falciparum protein farnesyltransferase at 5 nM by scintillation proximity assay
Kindly state inhibition for each of the entries shown.
Please state the figure in %; there is no need to write the unit.

Query string: Consider the molecule Cn1cnc(S(=O)(=O)N(Cc2ccccn2)C2Cc3cc(C#N)ccc3N(Cc3cncn3C)C2=O)c1 (centres undefined) and give its measured inhibition.
Result string: 5

Query string: # inhibition lookup, item Cn1cnc(S(=O)(=O)N(Cc2ccc(-n3cccn3)cc2)C2Cc3cc(C#N)ccc3N(Cc3cncn3C)C2=O)c1 (centres undefined)
Result string: 97

Query string: I am curious: what inhibition value has been reported for Cn1cncc1CN1C(=O)C(NS(=O)(=O)c2ccccn2)Cc2cc(Br)ccc21 (centres undefined) ?
Result string: 15

Query string: Requested field: inhibition. Item: Cn1cnc(S(=O)(=O)N(CC(=O)c2ccsc2)C2Cc3cc(C#N)ccc3N(Cc3cncn3C)C2=O)c1 (centres undefined)
Result string: 79

Query string: # input molecule: Cn1cnc(S(=O)(=O)N(Cc2ccc(C(F)(F)F)o2)C2Cc3cc(C#N)ccc3N(Cc3cncn3C)C2=O)c1 (centres undefined) ; wanted: its inhibition
Result string: 67

Query string: Fill in: inhibition of Cc1c(S(=O)(=O)N(CC(=O)NC(C)(C)C)C2Cc3cc(C#N)ccc3N(Cc3cncn3C)C2=O)ncn1C (centres undefined) is ___
Result string: 11

Query string: Suppose we examine the molecule Cn1cnc(S(=O)(=O)N(Cc2ccccc2)C2Cc3cc(C#N)ccc3N(Cc3cncn3C)C2=O)c1 (centres undefined) ; what inhibition value has been reported?
Result string: 88

Query string: Quick one: inhibition of Cn1cnc(S(=O)(=O)N(Cc2ccc(S(C)(=O)=O)cc2)C2Cc3cc(C#N)ccc3N(Cc3cncn3C)C2=O)c1 (centres undefined) ?
Result string: 91

Query string: Item Cn1cnc(S(=O)(=O)N(CC(=O)NC(C)(C)C)C2Cc3cc(Br)ccc3N(Cc3cncn3C)C2=O)c1 (centres undefined) has what recorded inhibition?
Result string: 81

Query string: Find the recorded inhibition belonging to Cn1cncc1CN1C(=O)C(N(CC(=O)NC(C)(C)C)S(=O)(=O)c2ccc3c(c2)OCCCO3)Cc2cc(C#N)ccc21 (centres undefined) and report it.
Result string: 4

Query string: Requested read-out: inhibition. Entry: Cn1cnc(S(=O)(=O)N(CC(=O)OC(C)(C)C)C2Cc3cc(C#N)ccc3N(Cc3cncn3C)C2=O)c1 (centres undefined)
Result string: 97

Query string: Entry Cn1cnc(S(=O)(=O)N(C(CC(=O)OC(C)(C)C)C(=O)OC(C)(C)C)C2Cc3cc(C#N)ccc3N(Cc3cncn3C)C2=O)c1 (centres undefined) has what inhibition?
Result string: 0

Query string: Fill in: inhibition of Cn1cncc1CN1C(=O)C(N(CC(=O)NC(C)(C)C)S(=O)(=O)c2cccc(F)c2)Cc2cc(C#N)ccc21 (centres undefined) is ___
Result string: 19

Query string: So what's the measured inhibition for this one? COC(=O)C1CCC(CN(C2Cc3cc(C#N)ccc3N(Cc3cncn3C)C2=O)S(=O)(=O)c2cn(C)cn2)CC1 (centres undefined)
Result string: 83

Query string: Would you kindly share the measured inhibition for Cn1cnc(S(=O)(=O)N(Cc2ccc(S(C)(=O)=O)cc2)C2Cc3cc(Br)ccc3N(Cc3cncn3C)C2=O)c1 (centres undefined) ?
Result string: 26

Query string: So what does the record say about inhibition for Cn1cnc(S(=O)(=O)NC2Cc3cc(Br)ccc3N(Cc3cncn3C)C2=O)c1 (centres undefined) ?
Result string: 15

Query string: Find the recorded inhibition belonging to Cn1cncc1CN1C(=O)C(N(Cc2ccc(S(C)(=O)=O)cc2)S(=O)(=O)c2ccccn2)Cc2cc(C#N)ccc21 (centres undefined) and report it.
Result string: 60

Query string: I am curious: what inhibition value has been reported for C=C(C)CN(C1Cc2cc(C#N)ccc2N(Cc2cncn2C)C1=O)S(=O)(=O)c1cn(C)cn1 (centres undefined) ?
Result string: 41

Query string: // inhibition lookup, key: Cc1ccccc1CN(C1Cc2cc(C#N)ccc2N(Cc2cncn2C)C1=O)S(=O)(=O)c1cn(C)cn1 (centres undefined)
Result string: 12

Query string: Request the reported inhibition associated with Cn1cnc(S(=O)(=O)N(Cc2ccccc2F)C2Cc3cc(C#N)ccc3N(Cc3cncn3C)C2=O)c1 (centres undefined)
Result string: 71

Query string: // inhibition lookup, key: Cn1cnc(S(=O)(=O)N(Cc2ccc(F)cc2F)C2Cc3cc(C#N)ccc3N(Cc3cncn3C)C2=O)c1 (centres undefined)
Result string: 27

Query string: Any idea what inhibition was measured for Cn1cnc(S(=O)(=O)NC2Cc3cc(C#N)ccc3N(Cc3cncn3C)C2=O)c1 (centres undefined) ?
Result string: 41

Query string: Recorded inhibition for Cn1cnc(S(=O)(=O)N(Cc2ccc(C#N)cc2)C2Cc3cc(C#N)ccc3N(Cc3cncn3C)C2=O)c1 (centres undefined) , please?
Result string: 56

Query string: For Cn1cnc(S(=O)(=O)N(CC(=O)NC(C)(C)C)C2Cc3cc(C#N)ccc3N(Cc3cncn3C)C2=O)c1 (centres undefined) , what is its reported inhibition?
Result string: 86
